B1: C10orf62 (parent)
chain: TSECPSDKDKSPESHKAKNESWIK

Variants of: B1
assay: protein stability index of a GFP-peptide fusion (GPS, HEK-293T) (PSI 1-6); higher = more stable;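 note: lentivirally expressed fusions sorted by FACS into six bins by GFP to DsRed ratio, PSI derived from sequencing read proportions per bin multiplied by bin number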
details: c terminus: a fixed tail appended
What protein stability index was measured for each of the following?

S21A : 4.61
K24D : 2.99
S2E : 3.98

The following variants each have a reported value; give each one's protein stability index.
1. K18D
2. K24Y
3. P5N

// result
1. 3.84
2. 3.16
3. 3.94

Data origin: the supplement of paper PMC10567573
